The following molecules are listed with their measured GI50 values.
# Tested on: OVCAR-4 ovarian
# Protocol: NCI tumour cell line growth inhibition, 384-well format

Below: 3 molecules and their reported GI50.
O=C1COc2c(CCNCCN(C(=O)CCNCCc3ccc(Cl)c(Cl)c3)C3CCCCC3)ccc(O)c2N1	16.1 µM
CN(C)C(=O)c1cc2cnc(Nc3ccc(N4CCNCC4)cn3)nc2n1C1CCCC1	30.4 µM
COc1cc2nccc(Oc3ccc(NC(=O)C4(C(=O)Nc5ccc(F)cc5)CC4)cc3)c2cc1OC	4.01 µM

Continue with the molecule presented below.
Output GI50 of CCc1c[nH]c2ncnc(N3CC[C@](N)(CNC(=O)c4ccc(F)cc4F)C3)c12 32 µM

----------
# Tested on: OVCAR-8 ovarian
# Protocol: NCI tumour cell line growth inhibition, 384-well format
Parameter measured: GI50

O=C(Nc1cccc(C(F)(F)F)c1)Nc1cc(S(=O)(=O)NC2CC2)ccc1-c1ccsc1	3.73 µM
COc1cc2nccc(Oc3ccc(NC(=O)C4(C(=O)Nc5ccc(F)cc5)CC4)cc3)c2cc1OC	3.88 µM
Cc1c(-c2ccc(N3CCc4cccc(C(=O)Nc5nc6ccccc6s5)c4C3)nc2C(=O)O)cnn1CC12CC3CC(CC(C3)C1)C2	11.8 µM

Could you now consider this next compound?
Please give the documented GI50 of CCc1c[nH]c2ncnc(N3CC[C@](N)(CNC(=O)c4ccc(F)cc4F)C3)c12 15 µM

----------
Entries annotated with measured TGI
# System: OVCAR-3 ovarian
# Protocol: NCI tumour cell line growth inhibition, 384-well format
Lab book: enter the figure in µM, no units written.

Reference set (3 entries):
O=C1COc2c(CCNCCN(C(=O)CCNCCc3ccc(Cl)c(Cl)c3)C3CCCCC3)ccc(O)c2N1	22
Cc1c(-c2ccc(N3CCc4cccc(C(=O)Nc5nc6ccccc6s5)c4C3)nc2C(=O)O)cnn1CC12CC3CC(CC(C3)C1)C2	18.1
O=C(Nc1cccc(C(F)(F)F)c1)Nc1cc(S(=O)(=O)NC2CC2)ccc1-c1ccsc1	5.79

Now consider the entry below.
Respond only with TGI recorded for COc1cc2nccc(Oc3ccc(NC(=O)C4(C(=O)Nc5ccc(F)cc5)CC4)cc3)c2cc1OC 10.2

----------
# System: SF-295 CNS
# Protocol: NCI tumour cell line growth inhibition, 384-well format
Reported GI50 is given for each of the following compounds.

Example compounds with recorded GI50:
Cc1c(-c2ccc(N3CCc4cccc(C(=O)Nc5nc6ccccc6s5)c4C3)nc2C(=O)O)cnn1CC12CC3CC(CC(C3)C1)C2	3.63 µM
O=C1COc2c(CCNCCN(C(=O)CCNCCc3ccc(Cl)c(Cl)c3)C3CCCCC3)ccc(O)c2N1	13.7 µM
CCc1c[nH]c2ncnc(N3CC[C@](N)(CNC(=O)c4ccc(F)cc4F)C3)c12	1.95 µM

Please tell me the measured GI50 for CN(C)C(=O)c1cc2cnc(Nc3ccc(N4CCNCC4)cn3)nc2n1C1CCCC1 ; system: SF-295 CNS. 23.1 µM

----------
GI50 values for the compounds below.
# Test system: SR leukemia
# Protocol: NCI tumour cell line growth inhibition, 384-well format

CCc1c[nH]c2ncnc(N3CC[C@](N)(CNC(=O)c4ccc(F)cc4F)C3)c12	60.3 nM
Cc1c(-c2ccc(N3CCc4cccc(C(=O)Nc5nc6ccccc6s5)c4C3)nc2C(=O)O)cnn1CC12CC3CC(CC(C3)C1)C2	19.1 nM
O=C1COc2c(CCNCCN(C(=O)CCNCCc3ccc(Cl)c(Cl)c3)C3CCCCC3)ccc(O)c2N1	1750 nM

Now turn to the next compound.
Supply recorded GI50 for O=C(Nc1cccc(C(F)(F)F)c1)Nc1cc(S(=O)(=O)NC2CC2)ccc1-c1ccsc1 here. 863 nM

----------
// values below are reported GI50
# Tested on: SK-OV-3 ovarian
# Protocol: NCI tumour cell line growth inhibition, 384-well format

Illustrative cases are given below, each with its answer.
CCc1c[nH]c2ncnc(N3CC[C@](N)(CNC(=O)c4ccc(F)cc4F)C3)c12	0.892 µM
COc1cc2nccc(Oc3ccc(NC(=O)C4(C(=O)Nc5ccc(F)cc5)CC4)cc3)c2cc1OC	4.97 µM
O=C1COc2c(CCNCCN(C(=O)CCNCCc3ccc(Cl)c(Cl)c3)C3CCCCC3)ccc(O)c2N1	15.5 µM

Shifting focus to the compound that follows.
Find the measured GI50 of CN(C)C(=O)c1cc2cnc(Nc3ccc(N4CCNCC4)cn3)nc2n1C1CCCC1 and report it. > 80.2 µM

----------
# maps each entry to its GI50
# Tested on: SNB-19 CNS
# Protocol: NCI tumour cell line growth inhibition, 384-well format

Cc1c(-c2ccc(N3CCc4cccc(C(=O)Nc5nc6ccccc6s5)c4C3)nc2C(=O)O)cnn1CC12CC3CC(CC(C3)C1)C2	10 µM

Using known records, supply GI50 for CCc1c[nH]c2ncnc(N3CC[C@](N)(CNC(=O)c4ccc(F)cc4F)C3)c12 3.49 µM

Could you please provide reported GI50 for O=C1COc2c(CCNCCN(C(=O)CCNCCc3ccc(Cl)c(Cl)c3)C3CCCCC3)ccc(O)c2N1 ? Thanks! 16.8 µM

Find the measured GI50 of O=C(Nc1cccc(C(F)(F)F)c1)Nc1cc(S(=O)(=O)NC2CC2)ccc1-c1ccsc1 and report it. 4.51 µM

----------
# Test system: SNB-75 CNS
# Protocol: NCI tumour cell line growth inhibition, 384-well format
Listed here are compounds together with their documented TGI.
Response body: numeric value in µM, unit text excluded.

Here is how some compounds turned out for TGI.
O=C1COc2c(CCNCCN(C(=O)CCNCCc3ccc(Cl)c(Cl)c3)C3CCCCC3)ccc(O)c2N1	7.25
CN(C)C(=O)c1cc2cnc(Nc3ccc(N4CCNCC4)cn3)nc2n1C1CCCC1	55
O=C(Nc1cccc(C(F)(F)F)c1)Nc1cc(S(=O)(=O)NC2CC2)ccc1-c1ccsc1	15.6

GET TGI where system = SNB-75 CNS and item = COc1cc2nccc(Oc3ccc(NC(=O)C4(C(=O)Nc5ccc(F)cc5)CC4)cc3)c2cc1OC 4.35

----------
# Tested on: RPMI-8226 leukemia
# Protocol: NCI tumour cell line growth inhibition, 384-well format; in the data active means GI50 below about 0.43 µM; inactive means the rest
Please reply with one of these outcomes: 1 (yes) for active, 0 (no) for inactive

Reference set (3 entries):
Cc1c(-c2ccc(N3CCc4cccc(C(=O)Nc5nc6ccccc6s5)c4C3)nc2C(=O)O)cnn1CC12CC3CC(CC(C3)C1)C2	1 (yes)
CN(C)C(=O)c1cc2cnc(Nc3ccc(N4CCNCC4)cn3)nc2n1C1CCCC1	0 (no)
O=C(Nc1cccc(C(F)(F)F)c1)Nc1cc(S(=O)(=O)NC2CC2)ccc1-c1ccsc1	0 (no)

// next entry
Recorded test call requested for CCc1c[nH]c2ncnc(N3CC[C@](N)(CNC(=O)c4ccc(F)cc4F)C3)c12 0 (no)

----------
# Test system: SF-268 CNS
# Protocol: NCI tumour cell line growth inhibition, 384-well format
Entries and their TGI

Worked examples follow.
O=C1COc2c(CCNCCN(C(=O)CCNCCc3ccc(Cl)c(Cl)c3)C3CCCCC3)ccc(O)c2N1	16.1 µM
O=C(Nc1cccc(C(F)(F)F)c1)Nc1cc(S(=O)(=O)NC2CC2)ccc1-c1ccsc1	14.4 µM
CCc1c[nH]c2ncnc(N3CC[C@](N)(CNC(=O)c4ccc(F)cc4F)C3)c12	> 100 µM

# input for lookup
Identify the reported TGI for the following entry. Cc1c(-c2ccc(N3CCc4cccc(C(=O)Nc5nc6ccccc6s5)c4C3)nc2C(=O)O)cnn1CC12CC3CC(CC(C3)C1)C2 28.5 µM

----------
# System: DU-145 prostate
# Protocol: NCI tumour cell line growth inhibition, 384-well format
Parameter measured: TGI (µM)
Write the answer as a number in µM, unit excluded.

COc1cc2nccc(Oc3ccc(NC(=O)C4(C(=O)Nc5ccc(F)cc5)CC4)cc3)c2cc1OC	31.5
CN(C)C(=O)c1cc2cnc(Nc3ccc(N4CCNCC4)cn3)nc2n1C1CCCC1	43.9

Please report TGI for the following compound: O=C(Nc1cccc(C(F)(F)F)c1)Nc1cc(S(=O)(=O)NC2CC2)ccc1-c1ccsc1 16.4
